Attribution: ChEMBL document CHEMBL5291721

Target desc: cGMP-inhibited 3',5'-cyclic phosphodiesterase 3A (Homo sapiens); further: assay procedure not described here
Sequence (Q14432 whole entry): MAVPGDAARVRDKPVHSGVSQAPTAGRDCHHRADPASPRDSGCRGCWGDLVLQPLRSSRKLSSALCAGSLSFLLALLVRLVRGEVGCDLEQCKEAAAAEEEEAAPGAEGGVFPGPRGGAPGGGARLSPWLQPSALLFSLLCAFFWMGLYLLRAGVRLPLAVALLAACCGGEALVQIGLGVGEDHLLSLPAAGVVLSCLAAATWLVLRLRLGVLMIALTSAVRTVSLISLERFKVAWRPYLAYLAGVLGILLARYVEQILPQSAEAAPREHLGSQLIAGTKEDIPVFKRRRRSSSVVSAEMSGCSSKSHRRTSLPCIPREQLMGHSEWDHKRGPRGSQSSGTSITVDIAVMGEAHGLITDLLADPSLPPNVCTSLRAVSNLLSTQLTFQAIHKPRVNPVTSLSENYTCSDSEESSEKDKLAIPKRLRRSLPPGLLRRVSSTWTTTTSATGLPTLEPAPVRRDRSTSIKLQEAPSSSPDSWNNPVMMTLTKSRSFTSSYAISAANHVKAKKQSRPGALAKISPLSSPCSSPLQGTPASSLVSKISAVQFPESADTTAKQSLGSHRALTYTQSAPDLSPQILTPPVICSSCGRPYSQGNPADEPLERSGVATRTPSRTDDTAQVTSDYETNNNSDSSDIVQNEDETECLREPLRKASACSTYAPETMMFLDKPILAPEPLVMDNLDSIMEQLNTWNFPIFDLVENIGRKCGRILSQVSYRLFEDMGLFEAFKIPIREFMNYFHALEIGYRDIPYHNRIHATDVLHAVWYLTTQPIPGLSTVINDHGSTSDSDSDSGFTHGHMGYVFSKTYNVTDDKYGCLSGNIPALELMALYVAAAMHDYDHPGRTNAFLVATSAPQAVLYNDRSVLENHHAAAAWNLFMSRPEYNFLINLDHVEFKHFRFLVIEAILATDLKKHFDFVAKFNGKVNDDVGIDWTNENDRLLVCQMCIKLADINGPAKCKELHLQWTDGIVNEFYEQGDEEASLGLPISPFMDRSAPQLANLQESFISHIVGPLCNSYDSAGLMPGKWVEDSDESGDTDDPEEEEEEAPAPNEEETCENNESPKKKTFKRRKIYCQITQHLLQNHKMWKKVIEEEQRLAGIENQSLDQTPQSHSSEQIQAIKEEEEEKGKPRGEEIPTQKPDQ
Format: functional
So I've got a bunch of compounds here, and I need their AC50 values.

Here is how some compounds turned out for AC50.
>>> readout_value("CCCNC(C)C(=O)Nc1ccccc1C (stereo not given)")
"> 30 µM"
>>> readout_value("COc1cc2nccc(Oc3ccc(NC(=O)Nc4cc(C)on4)c(Cl)c3)c2cc1OC")
"16 µM"

Working through the 3 compounds below one at a time, give AC50 for each.
1. CC(C)=CCOc1ccc(/C=C/C(=O)c2ccc(OCC=C(C)C)cc2OCC(=O)O)cc1
2. CCCCCCNC(=O)n1cc(F)c(=O)[nH]c1=O
3. Cc1cc2nc3c(=O)[nH]c(=O)nc-3n(C[C@H](O)[C@H](O)[C@H](O)COP(=O)(O)O)c2cc1C [RIBOFLAVIN 5'-PHOSPHATE]

["> 30 µM", "> 30 µM", "> 30 µM"]

----------
Target desc: Muscarinic acetylcholine receptor M2 (Homo sapiens, UniProt P08172); further: assay procedure not described here
Sequence (P08172 whole entry): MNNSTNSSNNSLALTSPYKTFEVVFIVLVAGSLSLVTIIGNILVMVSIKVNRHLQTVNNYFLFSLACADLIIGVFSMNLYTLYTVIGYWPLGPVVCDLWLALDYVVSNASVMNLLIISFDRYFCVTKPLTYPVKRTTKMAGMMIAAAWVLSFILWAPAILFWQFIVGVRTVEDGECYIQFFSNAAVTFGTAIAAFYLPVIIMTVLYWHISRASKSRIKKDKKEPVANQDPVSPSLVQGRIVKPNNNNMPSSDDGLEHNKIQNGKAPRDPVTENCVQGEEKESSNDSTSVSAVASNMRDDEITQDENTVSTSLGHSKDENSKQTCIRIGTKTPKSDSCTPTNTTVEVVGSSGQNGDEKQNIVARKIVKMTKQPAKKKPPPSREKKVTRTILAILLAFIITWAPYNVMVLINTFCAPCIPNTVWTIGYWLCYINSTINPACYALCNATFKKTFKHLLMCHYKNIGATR
Format: functional, cell-based
Please provide measured AC50 for the entries that follow.

Illustrative cases are given below, each with its answer.
>>> readout_value("O=C(Nc1c(Cl)cncc1Cl)c1ccc(OC(F)F)c(OCC2CC2)c1")
"> 30 µM"
>>> readout_value("Cc1cccc(N(C)C(=S)Oc2ccc3ccccc3c2)c1 [TOLNAFTATE]")
"> 10 µM"
>>> readout_value("Nc1nc(F)nc2c1ncn2[C@@H]1O[C@H](COP(=O)(O)O)[C@@H](O)[C@@H]1O [FLUDARABINE PHOSPHATE]")
"> 30 µM"

Record AC50 for all entries; do not skip any.
1. N#C[C@@H]1CCCN1C(=O)CNC12CC3CC(CC(O)(C3)C1)C2
2. COCCOC(=O)C1=C(C)NC(C)=C(C(=O)OC/C=C/c2ccccc2)C1c1cccc([N+](=O)[O-])c1 (stereo unspecified)
3. CCC(C)(Oc1ccc(C2(c3ccc(OC(C)(CC)C(=O)O)cc3)CCCCC2)cc1)C(=O)O (stereo unspecified) [CLINOFIBRATE]
4. O=C(O)CSCC(=O)NC1CCSC1=O (stereo unspecified)
5. CC(C)CC(N(C)C)C1(c2ccc(Cl)cc2)CCC1 (stereo unspecified)

["> 30 µM", "> 30 µM", "> 30 µM", "> 30 µM", "19 µM"]

Hi team, please reply with AC50 for each item in this list.
1. COc1ccc(C(CN(C)C)C2(O)CCCCC2)cc1 (stereo unspecified)
2. CC(NCCc1ccc(O)cc1)C(O)c1ccc(O)cc1 (stereo unspecified)
3. COc1cc(OC)c(C(=O)CCCN2CCCC2)c(OC)c1
4. N#Cc1ccccc1-c1cc(-c2ccccn2)cn(-c2ccccc2)c1=O
5. CN1c2ccccc2C(NCCCCCCC(=O)O)c2ccc(Cl)cc2S1(=O)=O (stereo unspecified)
6. C=C[C@@]1(C)CC(=O)[C@]2(O)[C@@]3(C)[C@@H](O)CCC(C)(C)[C@@H]3[C@H](OC(=O)CCN(C)C)[C@H](OC(C)=O)[C@@]2(C)O1
7. C[C@H]1Oc2cc(cnc2N)-c2c(nn(C)c2C#N)CN(C)C(=O)c2ccc(F)cc21
8. C[C@]12CC[C@H](O)CC1=CC[C@@H]1[C@@H]2CC[C@]2(C)C(c3cccnc3)=CC[C@@H]12

["> 10 µM", "> 10 µM", "> 30 µM", "> 30 µM", "> 30 µM", "> 30 µM", "> 30 µM", "> 10 µM"]

----------
Data export: AC50 values recorded with Cannabinoid receptor 1 (Homo sapiens, UniProt P21554).
Sequence (P21554 whole entry): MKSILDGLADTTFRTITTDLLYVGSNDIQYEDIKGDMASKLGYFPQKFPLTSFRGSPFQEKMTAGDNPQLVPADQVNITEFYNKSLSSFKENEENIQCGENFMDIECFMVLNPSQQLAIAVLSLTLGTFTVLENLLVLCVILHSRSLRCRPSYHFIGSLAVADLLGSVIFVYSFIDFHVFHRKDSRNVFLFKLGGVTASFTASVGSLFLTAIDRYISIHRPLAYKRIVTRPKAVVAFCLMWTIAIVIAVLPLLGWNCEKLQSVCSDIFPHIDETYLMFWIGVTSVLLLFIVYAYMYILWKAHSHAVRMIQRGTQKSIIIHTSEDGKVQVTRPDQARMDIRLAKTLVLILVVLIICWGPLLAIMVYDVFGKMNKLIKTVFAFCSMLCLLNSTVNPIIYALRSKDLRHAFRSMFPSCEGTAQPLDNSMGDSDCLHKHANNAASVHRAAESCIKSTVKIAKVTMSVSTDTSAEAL

Batch lookup, AC50 per entry.
1. COc1ccnc(C[S+]([O-])c2nc3ccc(OC(F)F)cc3[nH]2)c1OC (stereo not given)
2. NS(=O)(=O)c1cc(C2(O)NC(=O)c3ccccc32)ccc1Cl (stereo not given)

["> 10 µM", "> 10 µM"]

Give AC50 for all compounds that follow.
1. CC(=O)OCC(=O)[C@@]1(O)CC[C@H]2[C@@H]3CCC4=CC(=O)CC[C@]4(C)C3=CC[C@@]21C [ANECORTAVE ACETATE]
2. C=CC(N)CCC(=O)O (stereo not given)
3. COc1ccc(/C=C/C(=O)Nc2ccccc2C(=O)O)cc1OC

1: > 10 µM; 2: > 10 µM; 3: > 30 µM

----------
Target desc: UniProt:P28223
Sequence (P28223 whole entry): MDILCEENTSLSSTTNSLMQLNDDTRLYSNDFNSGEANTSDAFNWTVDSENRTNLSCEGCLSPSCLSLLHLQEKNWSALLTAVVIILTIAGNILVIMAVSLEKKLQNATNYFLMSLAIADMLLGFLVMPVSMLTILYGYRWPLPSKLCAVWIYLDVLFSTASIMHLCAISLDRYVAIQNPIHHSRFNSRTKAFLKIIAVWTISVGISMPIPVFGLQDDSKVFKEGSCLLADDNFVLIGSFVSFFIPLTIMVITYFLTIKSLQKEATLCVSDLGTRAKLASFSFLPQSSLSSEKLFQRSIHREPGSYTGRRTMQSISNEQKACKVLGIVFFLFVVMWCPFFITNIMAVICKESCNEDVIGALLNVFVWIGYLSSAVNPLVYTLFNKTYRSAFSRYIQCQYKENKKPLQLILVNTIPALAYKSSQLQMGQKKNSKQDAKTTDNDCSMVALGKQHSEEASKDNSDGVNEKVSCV
Format: functional, cell-based
Measurement type: AC50

Some solved cases for reference:
>>> readout_value("CO/N=C(\\C(=O)N[C@@H]1C(=O)N2C(C(=O)O)=C(COC(N)=O)CS[C@H]12)c1ccco1")
"> 30 µM"
>>> readout_value("CCN(CC)CC(=O)Oc1ccc(NC(C)=O)cc1")
"> 30 µM"
>>> readout_value("O=C(Nc1c(Cl)cncc1Cl)c1ccc(OC(F)F)c(OCC2CC2)c1")
"> 30 µM"
>>> readout_value("COc1c(O[C@@H]2O[C@H](CO)[C@@H](O)[C@H](O)[C@H]2O)cc2c(c1OC)-c1ccc(SC)c(=O)cc1[C@@H](NC(C)=O)CC2 [THIOCOLCHICOSIDE]")
"> 30 µM"
>>> readout_value("Cc1cc(CC(=O)O)n(C)c1C(=O)c1ccc(Cl)cc1 [ZOMEPIRAC]")
"> 30 µM"
>>> readout_value("CCCCC1(CC)C(=O)NC(=O)NC1=O")
"> 30 µM"
>>> readout_value("NC(=O)CCC/N=C(\\c1ccc(Cl)cc1)c1cc(F)ccc1O [PROGABIDE]")
"> 10 µM"
>>> readout_value("CC(C)=CCOc1ccc(/C=C/C(=O)c2ccc(OCC=C(C)C)cc2OCC(=O)O)cc1")
"> 30 µM"

Just so you know, measured AC50 for COc1cccc(N(C)C(=S)Oc2ccc3c(c2)CCCC3)n1 [LIRANAFTATE] came out at 7.4 µM

----------
Would you mind telling me the reported AC50 of each entry?
Target desc: Histamine H3 receptor (Homo sapiens, UniProt Q9Y5N1); further: assay procedure not described here
Sequence (Q9Y5N1 whole entry): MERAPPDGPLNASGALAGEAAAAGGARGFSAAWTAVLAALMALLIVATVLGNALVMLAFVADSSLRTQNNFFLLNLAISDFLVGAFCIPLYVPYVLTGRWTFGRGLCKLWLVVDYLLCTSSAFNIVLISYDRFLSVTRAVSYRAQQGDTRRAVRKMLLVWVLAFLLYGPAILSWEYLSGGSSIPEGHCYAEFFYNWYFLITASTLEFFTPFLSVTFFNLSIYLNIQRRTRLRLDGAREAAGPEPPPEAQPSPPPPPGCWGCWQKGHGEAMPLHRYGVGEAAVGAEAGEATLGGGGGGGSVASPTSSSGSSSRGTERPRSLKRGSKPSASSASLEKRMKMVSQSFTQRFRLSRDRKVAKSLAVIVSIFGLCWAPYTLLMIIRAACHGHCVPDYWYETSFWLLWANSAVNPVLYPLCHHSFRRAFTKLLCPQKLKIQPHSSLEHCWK
*1 amine or outer side, *2 acyl side, *3 side chain or, on linkers, in order; H or OH if unused. Where a SMILES comes first, the peptide text is derived from it. Bridges are numbered along the chain shown (N, C = ends). [ ]: non-standard residue; d: D form. The star is where a group is joined. hTyr(3S-OH,4S-OH,3'-OSO3H) = N[C@H](C(=O)O)[C@H](O)[C@@H](O)c1ccc(O)c(OS(=O)(=O)O)c1; Orn(4R-OH,5R-OH) = O=C([C@H](C[C@@H](O)[C@@H](O)N[*:3])N[*:1])[*:2]; Pro(3S-OH,4S-Me) = C[C@H]1CN[C@H](C(=O)O)[C@H]1O; X1 = CCCCCOc1ccc(-c2cc(-c3ccc(C(=O)*)cc3)no2)cc1; Gln(3R-OH) = NC(=O)C[C@@H](O)[C@H](N)C(=O)O; Hyp = O=C(O)[C@@H]1C[C@@H](O)CN1

>>> readout_value("Cc1onc(-c2c(Cl)cccc2Cl)c1C(=O)N[C@@H]1C(=O)N2[C@@H]1SC(C)(C)[C@@H]2C(=O)O")
"> 30 µM"

State the recorded AC50 for every item in the following list.
1. CCCCCOc1ccc(-c2cc(-c3ccc(C(=O)N[C@H]4C[C@@H](O)[C@@H](O)NC(=O)[C@@H]5[C@@H](O)[C@@H](C)CN5C(=O)[C@H]([C@H](O)CC(N)=O)NC(=O)[C@H]([C@H](O)[C@@H](O)c5ccc(O)c(OS(=O)(=O)O)c5)NC(=O)[C@@H]5C[C@@H](O)CN5C(=O)[C@H]([C@@H](C)O)NC4=O)cc3)no2)cc1 [MICAFUNGIN] (X1-[Orn(4R-OH,5R-OH)]T[Hyp][hTyr(3S-OH,4S-OH,3'-OSO3H)][Gln(3R-OH)][Pro(3S-OH,4S-Me)]; lactam 1-C)
2. C[C@]1(COc2ccc(N3CCC(Oc4ccc(OC(F)(F)F)cc4)CC3)cc2)Cn2cc([N+](=O)[O-])nc2O1
3. CCCCCCCCCCC[C@@H](C[C@@H]1OC(=O)[C@H]1CCCCCC)OC(=O)[C@H](CC(C)C)NC=O
4. CC(C)[N+](C)(CCOC(=O)C1c2ccccc2Oc2ccccc21)C(C)C

["> 30 µM", "> 30 µM", "> 30 µM", "> 30 µM"]

----------
Target desc: Voltage-gated inwardly rectifying potassium channel KCNH2 (Homo sapiens, UniProt Q12809); further: assay procedure not described here
Sequence (Q12809 whole entry): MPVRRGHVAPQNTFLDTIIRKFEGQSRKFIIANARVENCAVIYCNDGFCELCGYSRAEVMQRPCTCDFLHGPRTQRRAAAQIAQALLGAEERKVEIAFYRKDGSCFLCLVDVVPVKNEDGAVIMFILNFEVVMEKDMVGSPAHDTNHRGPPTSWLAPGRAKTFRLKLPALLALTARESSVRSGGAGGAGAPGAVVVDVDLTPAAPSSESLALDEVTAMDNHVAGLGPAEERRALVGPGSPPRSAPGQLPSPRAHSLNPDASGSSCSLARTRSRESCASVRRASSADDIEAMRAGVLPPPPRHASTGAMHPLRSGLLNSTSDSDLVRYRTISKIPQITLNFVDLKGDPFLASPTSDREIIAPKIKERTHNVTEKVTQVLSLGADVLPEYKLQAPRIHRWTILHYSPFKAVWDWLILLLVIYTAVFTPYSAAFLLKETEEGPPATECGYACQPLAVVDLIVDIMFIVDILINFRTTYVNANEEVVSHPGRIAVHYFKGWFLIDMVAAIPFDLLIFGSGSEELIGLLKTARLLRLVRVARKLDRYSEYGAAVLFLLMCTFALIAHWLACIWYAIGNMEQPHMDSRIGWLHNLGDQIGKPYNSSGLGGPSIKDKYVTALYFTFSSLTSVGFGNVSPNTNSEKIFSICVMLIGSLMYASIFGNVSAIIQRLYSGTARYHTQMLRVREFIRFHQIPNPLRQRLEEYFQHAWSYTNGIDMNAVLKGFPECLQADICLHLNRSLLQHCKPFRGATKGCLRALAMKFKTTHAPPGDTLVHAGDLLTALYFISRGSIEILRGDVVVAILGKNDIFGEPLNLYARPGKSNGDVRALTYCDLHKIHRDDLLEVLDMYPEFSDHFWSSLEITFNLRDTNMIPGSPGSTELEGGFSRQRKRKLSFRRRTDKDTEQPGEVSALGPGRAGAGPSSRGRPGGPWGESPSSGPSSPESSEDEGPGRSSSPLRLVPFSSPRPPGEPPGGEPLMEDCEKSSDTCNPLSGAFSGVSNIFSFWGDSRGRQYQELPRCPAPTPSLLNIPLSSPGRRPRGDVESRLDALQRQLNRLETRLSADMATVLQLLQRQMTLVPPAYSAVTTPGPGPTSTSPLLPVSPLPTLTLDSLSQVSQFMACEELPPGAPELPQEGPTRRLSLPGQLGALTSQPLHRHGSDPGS
Format: functional
Run parameters: read-out: AC50; further: assay procedure not described here
Measurement type: AC50

Example compounds with recorded AC50:
>>> readout_value("CCOC(=O)Nc1ccc2c(c1)N(C(=O)CCN1CCOCC1)c1ccccc1S2 [MORICIZINE]")
"19 µM"
>>> readout_value("OCCN1CCN(CC/C=C2/c3ccccc3Sc3ccc(Cl)cc32)CC1 [ZUCLOPENTHIXOL]")
"0.9 µM"
>>> readout_value("OC(CCCN1CCCCC1)(c1ccccc1)c1ccccc1 [DIPHENIDOL]")
"16 µM"

Reported AC50 for CC(=O)Nc1c(I)c(C(=O)N[C@H]2C(O)O[C@H](CO)[C@@H](O)[C@@H]2O)c(I)c(N(C)C(C)=O)c1I (some centres undefined) [METRIZAMIDE] was > 30 µM
